test system: SNB-19 CNS; test: NCI-60 one-dose screen, 48 h (100 = growth as untreated, 0 = no growth, -100 = all killed); details: 10 µM unless noted
Compounds without any hit were thinned out: in the full panel of roughly 83,000, 20% have a hit.
Field: growth. Provide a value for each of the compounds that follow.
Answer with a number only, understood to be in %.

Entry CC(C)(O)c1cccc(F)c1 needs its growth filled in; supply it.
97.6

Entry Cc1ccc(O)c(C(=O)c2ccccc2Cl)c1 needs its growth filled in; supply it.
109

Entry COc1ccc(C2=NC(=O)NC2c2ccc(OC)cc2)cc1 (stereo unspecified) needs its growth filled in; supply it.
58.5

Entry O=C1C(Cl)C(c2ccccc2Cl)N1n1cnnc1 (stereo unspecified) needs its growth filled in; supply it.
93

Entry CNC(=O)c1cc(Oc2ccc3nc(Nc4cc(Cl)cc(Cl)c4)ccc3c2)ccn1 needs its growth filled in; supply it.
75.2

Entry OC(c1cccc(OCc2ccccc2)c1)c1nnc(-c2ccccc2)o1 (stereo unspecified) needs its growth filled in; supply it.
99.4
